assay: Tmax in po dosed human measured under phase 1 trial; assay type: ADME, organism-based; settings: in vivo
reported.metric: Tmax (h)

{"columns": ["entry.smiles", "Tmax, h"],
 "data": [
  ["Cc1[nH]c2ccccc2c1CCNCc1ccc(/C=C/C(=O)NO)cc1", 1.5]
]}

A. Cn1cc(CNCC2CCN(c3ncc(C(=O)NO)cn3)CC2)c2ccccc21
B. O=C(/C=C/c1cccc(S(=O)(=O)Nc2ccccc2)c1)NO
Request: Could you please tell me which of these two has the higher Tmax: A or B ? Identify your selection by its label.
Result: A
(A: 4 h, B: 1.9 h)

* * *

system: Trypanosoma brucei brucei; assay: Antitrypanosomal activity against Trypanosoma brucei brucei 427 assessed as inhibition of parasite proliferation measured as ATP levels after 48 hrs by luciferase-based assay; format: functional, organism-based; details: Trypanosoma brucei, 427, 48 h
pEC50: −log10 of the molar value.
reported.metric: pEC50

Please review the following examples before continuing.
{"columns": ["molecule", "pEC50"],
 "data": [
  ["Cn1cc(CNCC2CCN(c3ncc(C(=O)NO)cn3)CC2)c2ccccc21 [QUISINOSTAT]", 7.54],
  ["O=C(/C=C/C#Cc1ccc(NS(=O)(=O)c2ccccc2)cc1)NO [OXAMFLATIN]", 5.39],
  ["O=C(/C=C\\c1cccc(C(=O)NO)c1)NO", 5.15]
]}

A. O=C(/C=C/c1ccc(CN(CCO)CCc2c[nH]c3ccccc23)cc1)NO [DACINOSTAT]
B. CN(C)Cc1c(C(=O)NCCOc2ccc(C(=O)NO)cc2)oc2ccccc12 [ABEXINOSTAT]
Request: Select the item whose pEC50 value is smaller, choosing between A and B . Identify your selection by its label.
Result: B
(B: 5.07, A: 5.58)

* * *

assay: Cmax in human; format: ADME, organism-based; conditions: in vivo
reported.metric: Cmax (nM)
Give just the numeric value; nM need not be written.

Request: Look at this compound and give its reported Cmax. N=C(N)c1ccc(OCCCCCOc2ccc(C(=N)N)cc2)cc1
Result: 900

* * *

test: AUC in iv dosed human measured under phase 1/2 trial; type: ADME, organism-based; conditions: in vivo
reported.metric: AUC (ng·h/mL)
Give just the numeric value; ng·h/mL need not be written.

Request: Look at this compound and give its reported AUC. O=C(/C=C/c1cccc(S(=O)(=O)Nc2ccccc2)c1)NO
Result: 47500

* * *

assay: AUC in po dosed human measured under phase 2 trial; type: ADME, organism-based; conditions: in vivo
reported.metric: AUC (ng·h/mL)
Give just the numeric value; ng·h/mL need not be written.

Request: Look at this compound and give its reported AUC. Cc1[nH]c2ccccc2c1CCNCc1ccc(/C=C/C(=O)NO)cc1
Result: 356

* * *

test: Cmax in iv dosed human measured under phase 1/2 trial; assay type: ADME, organism-based; design: route intravenous; details: in vivo
reported.metric: Cmax (µM)
Give just the numeric value; µM need not be written.

Request: Look at this compound and give its reported Cmax. O=C(/C=C/c1cccc(S(=O)(=O)Nc2ccccc2)c1)NO
Result: 183

* * *

experiment: Half-life in iv dosed human measured under phase 1/2 trial; format: ADME, organism-based; details: in vivo
reported.metric: half-life (min)
Give just the numeric value; min need not be written.

Request: Look at this molecule and give its reported half-life. O=C(/C=C/c1cccc(S(=O)(=O)Nc2ccccc2)c1)NO
Result: 209
